Reported pIC50 values follow for various molecules
Assayed System: androgen receptor (AR) (Homo sapiens, UniProt P10275, T878A)
Construct: stably transfected eGFP-expressing LNCaP human prostate cancer cells (LN-ARR2PB-eGFP) containing an androgen responsive probasin-derived promoter; endogenous in cells; host or cells: LNCaP (LN-ARR2PB-eGFP)
Sequence (P10275 whole entry T878A): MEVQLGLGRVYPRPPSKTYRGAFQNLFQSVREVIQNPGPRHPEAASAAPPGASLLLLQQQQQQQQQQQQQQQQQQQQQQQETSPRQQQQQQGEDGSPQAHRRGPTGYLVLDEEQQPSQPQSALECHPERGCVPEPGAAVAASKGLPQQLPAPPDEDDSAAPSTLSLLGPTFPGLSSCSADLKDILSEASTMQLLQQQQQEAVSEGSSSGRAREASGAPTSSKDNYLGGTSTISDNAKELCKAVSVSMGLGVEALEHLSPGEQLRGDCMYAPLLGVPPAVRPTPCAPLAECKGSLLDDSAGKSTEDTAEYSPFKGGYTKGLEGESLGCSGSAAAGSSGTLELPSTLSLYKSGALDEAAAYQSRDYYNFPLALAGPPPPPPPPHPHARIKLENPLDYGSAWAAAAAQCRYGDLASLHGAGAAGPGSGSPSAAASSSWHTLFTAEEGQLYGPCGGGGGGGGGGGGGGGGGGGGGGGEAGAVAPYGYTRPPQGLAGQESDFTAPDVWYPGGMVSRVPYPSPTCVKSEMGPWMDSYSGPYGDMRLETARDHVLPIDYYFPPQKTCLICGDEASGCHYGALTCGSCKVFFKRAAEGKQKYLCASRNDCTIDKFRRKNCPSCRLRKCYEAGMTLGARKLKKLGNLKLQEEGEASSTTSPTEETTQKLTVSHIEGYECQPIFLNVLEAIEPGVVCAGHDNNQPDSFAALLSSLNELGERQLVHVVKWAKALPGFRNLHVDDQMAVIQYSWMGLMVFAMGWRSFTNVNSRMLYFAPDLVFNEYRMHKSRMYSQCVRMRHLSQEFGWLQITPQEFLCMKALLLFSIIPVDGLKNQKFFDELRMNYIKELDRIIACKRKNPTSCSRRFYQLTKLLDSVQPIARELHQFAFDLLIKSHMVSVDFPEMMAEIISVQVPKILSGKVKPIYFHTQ
Measurement Protocol: eGFP cellular AR transcription assay
Type: cell-based
Recorded Conditions: LN-ARR2PBeGFP LNCaP cells, 0.1 nM R1881, 3 days incubation; read-out: eGFP IC50
pIC50 is defined as minus the log10 of a concentration measured in mol/L.

Some entries whose results are on file:
1. c1ccc2ncc(-c3c[nH]c4ccccc34)cc2c1 [Compound 13628]	6.10
2. Fc1cc(F)c2[nH]cc(-c3ccc4cccc(F)c4n3)c2c1F [Compound 13752]	6.43
3. CNC(=O)c1ccc(Cl)c2nc(-c3c[nH]c4c(F)c(F)c(F)cc34)ccc12 [Compound 13755]	6.33
4. Fc1ccc2c(-c3ccc4cccnc4c3)c[nH]c2c1 [Compound 13764]	7.00
5. Cn1cc(-c2ccc3ccccc3n2)c2ccccc21 [Compound 13571]	5.96

Determine its reported pIC50: c1ccc(COc2ccc3c(-c4ccc5ccccc5n4)c[nH]c3c2)cc1 [Compound 13589]
5.28

Give the reported value of pIC50 for this record: Fc1ccc(-c2c[nH]c3ccccc23)nc1 [Compound 13742]
6.66

Identify pIC50 associated with the molecule Brc1ccc2[nH]c(-c3nc4ccccc4s3)cc2c1 [Compound 13540]
5.60

Provide only the value of recorded pIC50 for Brc1ccc2c(c1)CC(c1c[nH]c3ccc(Br)cc13)N2 (stereo not drawn) [Compound 13503]
5.35

meta.source: patent US10633338B2
